- study target: T1, human VEGF (hVEGF) (human, UniProt P15692 181-395)
- T1 construct: also called VEGF-A
- T1 sequence: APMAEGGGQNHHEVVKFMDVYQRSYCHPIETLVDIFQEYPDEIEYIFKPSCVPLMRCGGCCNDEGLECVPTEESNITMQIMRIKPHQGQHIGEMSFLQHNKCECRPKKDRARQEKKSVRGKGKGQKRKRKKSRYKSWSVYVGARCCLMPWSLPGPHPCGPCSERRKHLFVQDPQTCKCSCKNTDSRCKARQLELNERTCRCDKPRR
- assay text: SPR single-cycle
// values below are reported koff
Hi! Could you send only the number? It should be in s⁻¹, unit omitted.

# count of solved cases: 4
* G6.31 LC-F83A (Fab, V domains shown, Fab) VH: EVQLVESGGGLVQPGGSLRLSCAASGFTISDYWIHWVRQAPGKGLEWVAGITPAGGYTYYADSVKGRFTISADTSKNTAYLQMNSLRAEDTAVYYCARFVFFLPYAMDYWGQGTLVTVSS VL: DIQMTQSPSSLSASVGDRVTITCRASQDVSTAVAWYQQKPGKAPKLLIYSASFLYSGVPSRFSGSGSGTDFTLTISSLQPEDAATYYCQQGYGNPFTFGQGTKVEIK | 0.000433
* G6.31 HC-A40E (Fab, name in Kabat numbering, V domains shown, Fab) VH: EVQLVESGGGLVQPGGSLRLSCAASGFTISDYWIHWVRQEPGKGLEWVAGITPAGGYTYYADSVKGRFTISADTSKNTAYLQMNSLRAEDTAVYYCARFVFFLPYAMDYWGQGTLVTVSS VL: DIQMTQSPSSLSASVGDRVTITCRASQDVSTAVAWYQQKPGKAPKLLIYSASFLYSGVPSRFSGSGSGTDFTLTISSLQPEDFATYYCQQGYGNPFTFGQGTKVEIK | 0.000466
* G6.31 HC-Y58Q (Fab, name in Kabat numbering, V domains shown, Fab) VH: EVQLVESGGGLVQPGGSLRLSCAASGFTISDYWIHWVRQAPGKGLEWVAGITPAGGYTQYADSVKGRFTISADTSKNTAYLQMNSLRAEDTAVYYCARFVFFLPYAMDYWGQGTLVTVSS VL: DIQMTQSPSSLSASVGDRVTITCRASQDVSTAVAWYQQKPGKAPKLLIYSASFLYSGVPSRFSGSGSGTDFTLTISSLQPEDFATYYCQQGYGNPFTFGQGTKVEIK | 0.000358
* G6.31 HC-S70H (Fab, name in Kabat numbering, V domains shown, Fab) VH: EVQLVESGGGLVQPGGSLRLSCAASGFTISDYWIHWVRQAPGKGLEWVAGITPAGGYTYYADSVKGRFTIHADTSKNTAYLQMNSLRAEDTAVYYCARFVFFLPYAMDYWGQGTLVTVSS VL: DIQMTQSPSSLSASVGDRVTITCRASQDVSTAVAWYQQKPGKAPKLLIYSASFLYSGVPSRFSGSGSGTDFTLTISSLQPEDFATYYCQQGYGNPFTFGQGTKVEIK | 0.00066

Prompt: Can you look up the measured koff of G6.31 HC-I51H (Fab, name in Kabat numbering, V domains shown, Fab) VH: EVQLVESGGGLVQPGGSLRLSCAASGFTISDYWIHWVRQAPGKGLEWVAGHTPAGGYTYYADSVKGRFTISADTSKNTAYLQMNSLRAEDTAVYYCARFVFFLPYAMDYWGQGTLVTVSS VL: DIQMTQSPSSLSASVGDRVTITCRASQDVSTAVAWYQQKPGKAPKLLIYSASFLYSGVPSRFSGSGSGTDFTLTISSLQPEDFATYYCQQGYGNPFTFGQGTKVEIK for me?
Response: 0.00152
